This collection of values is drawn from patent US20050209157A1.

Below, each entry is listed alongside its reported viability at 0.5 µM.
# Method Summary: Synergy of Shiva-1 and lysozyme, percent viability;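 note: Lysozyme at ten times the molar concentration of the peptide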
# Type: cell-based, Staphylococcus intermedius
# Condition Summary: S. intermedius 19930
No end group written: not given here.
Measured Endpoint: viability at 0.5 µM (%)

[
  {
    "Substance": "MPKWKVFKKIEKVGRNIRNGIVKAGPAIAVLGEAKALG-NH2 (C-terminus assumed) [SB-37]",
    "Readout Value": 69.4
  },
  {
    "Substance": "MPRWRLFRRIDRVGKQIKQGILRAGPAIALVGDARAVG [Shiva-1]",
    "Readout Value": 65
  }
]

---

# Method Summary: Synergy of Shiva-1 and lysozyme, percent viability;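 note: Lysozyme at ten times the molar concentration of the peptide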
# Type: cell-based, Staphylococcus intermedius
# Condition Summary: S. intermedius 19930
No end group written: not given here.

[
  {
    "Substance": "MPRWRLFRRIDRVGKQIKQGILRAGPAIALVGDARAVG [Shiva-1]",
    "viability at 1 µM (%)": 42.1
  },
  {
    "Substance": "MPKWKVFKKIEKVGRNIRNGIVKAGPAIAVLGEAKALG-NH2 (C-terminus assumed) [SB-37]",
    "viability at 1 µM (%)": 42.5
  }
]

---

# Test system: Pseudomonas aeruginosa ATCC 9027
# Method Summary: Antimicrobial assay I, MIC by OD measurement
# Type: cell-based
# Condition Summary: 37° C. for 24 hours, absorbance 620 nm
No end group written: not given here.
Mark N for paerug9027 (MIC) values under 20 µg/mL, and Y for everything at or above.

[
  {
    "Substance": "FAKLAKKALAKLL-NH2 [P148]",
    "Cat": "Y"
  },
  {
    "Substance": "FAKLLALALKKAL-NH2 [P97, FAKLLALALKKAL-NH2]",
    "Cat": "Y"
  },
  {
    "Substance": "KLALKLALKALKAAKLA-NH2 [P150]",
    "Cat": "N"
  },
  {
    "Substance": "FAKLLAKALKKLL-NH2 [P55]",
    "Cat": "N"
  },
  {
    "Substance": "FAKKLAKKLAKLAL-NH2 [P45, FAKKLAKKLAKLAL-NH2]",
    "Cat": "Y"
  },
  {
    "Substance": "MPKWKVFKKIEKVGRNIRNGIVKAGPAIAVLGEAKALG-OH [P5, reference compound]",
    "Cat": "Y"
  },
  {
    "Substance": "FKRLAKIKVLRLAKIKR-NH2 [P147]",
    "Cat": "N"
  },
  {
    "Substance": "FAKLLAKLAKKFAL-NH2 [P120, FAKLLAKLAKKFAL-NH2]",
    "Cat": "Y"
  },
  {
    "Substance": "FALALKKALKALKKAL-NH2 [P34]",
    "Cat": "Y"
  },
  {
    "Substance": "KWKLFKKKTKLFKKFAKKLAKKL-NH2 [P73]",
    "Cat": "N"
  },
  {
    "Substance": "FAKKLAKLAKKL-NH2 [P106]",
    "Cat": "Y"
  },
  {
    "Substance": "FAKKLAKKLAKAL-NH2 [P74, FAKKLAKKLAKAL-NH2]",
    "Cat": "N"
  }
]
